Test Target: cAMP and cAMP-inhibited cGMP 3',5'-cyclic phosphodiesterase 10A (Homo sapiens, UniProt Q9Y233)
Sequence (Q9Y233 whole entry): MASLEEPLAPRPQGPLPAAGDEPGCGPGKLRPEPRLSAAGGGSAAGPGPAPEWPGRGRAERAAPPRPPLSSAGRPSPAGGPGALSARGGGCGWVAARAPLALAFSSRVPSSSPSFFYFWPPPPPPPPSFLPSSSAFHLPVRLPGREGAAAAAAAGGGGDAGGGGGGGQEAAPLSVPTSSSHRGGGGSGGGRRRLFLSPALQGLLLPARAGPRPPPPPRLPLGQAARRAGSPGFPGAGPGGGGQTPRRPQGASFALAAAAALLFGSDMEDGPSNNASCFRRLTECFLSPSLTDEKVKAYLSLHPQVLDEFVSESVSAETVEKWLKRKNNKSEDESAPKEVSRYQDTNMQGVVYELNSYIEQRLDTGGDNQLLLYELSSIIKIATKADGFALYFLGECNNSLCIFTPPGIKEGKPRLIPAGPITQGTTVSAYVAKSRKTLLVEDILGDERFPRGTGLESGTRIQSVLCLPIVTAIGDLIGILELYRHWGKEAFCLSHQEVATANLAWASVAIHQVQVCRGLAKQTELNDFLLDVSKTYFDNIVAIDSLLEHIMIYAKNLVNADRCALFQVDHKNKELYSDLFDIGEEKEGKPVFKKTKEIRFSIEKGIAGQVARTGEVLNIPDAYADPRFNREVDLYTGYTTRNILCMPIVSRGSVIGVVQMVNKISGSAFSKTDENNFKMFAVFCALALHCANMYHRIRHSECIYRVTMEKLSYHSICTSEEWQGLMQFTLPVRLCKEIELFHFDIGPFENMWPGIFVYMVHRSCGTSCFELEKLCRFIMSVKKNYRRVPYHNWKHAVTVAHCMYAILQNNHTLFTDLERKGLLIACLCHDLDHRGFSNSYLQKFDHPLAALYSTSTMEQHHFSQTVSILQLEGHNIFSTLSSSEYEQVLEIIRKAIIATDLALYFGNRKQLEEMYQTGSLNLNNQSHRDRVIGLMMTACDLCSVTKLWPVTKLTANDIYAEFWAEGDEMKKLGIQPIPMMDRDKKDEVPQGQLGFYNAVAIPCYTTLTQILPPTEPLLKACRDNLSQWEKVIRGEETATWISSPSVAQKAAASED
pIC50: −log10 of the molar value.
Here the recorded pIC50 is given for each entry.
Reported Property: pIC50

Compound	Reported Value
COc1cc2cnnc(N3CC(O)CC(c4ccccc4)C3)c2cc1OC (stereo not drawn)	8.52
COc1cc2nncc(N3CC(O)CC(c4ccccc4)C3)c2cc1OC (stereo not drawn)	9.00
COc1cc2ncnc(N3CC(O)CC(c4ccccc4)C3)c2cc1OC (stereo not drawn)	8.52

###

Assay: Ratio of drug uptake from blood to plasma in rat at 10 mg/kg, sc
Format: ADME, organism-based
Measurement Parameters: blood and plasma
Reported Property: blood plasma ratio

Molecule Smiles	Reported Value
CCC(CC)Nc1ncnc2c(OC)c(OC)c(OC)cc12	0.4
